system: SR; experiment: NCI tumour cell line growth inhibition, 48 h
The source made the active and inactive calls. Cut-off read from the data, not from the text of the source: active = GI50 up to about 1.1 µM and inactive = higher.
Labels: active, inactive

CC(=O)N(CCc1ccccc1)C(C#N)c1ccccc1 (centres undefined) : inactive
Cc1c2cnccc2c(C)c2c1[nH]c1ccc(O)cc12 : active
O=C1Oc2ccccc2N/C1=C/C(=O)c1ccc(Cl)cc1 : inactive
C/C(=N\Nc1nc2ccccc2o1)c1ncccn1 : active
NCC(O)CSP(=O)(O)O (centres undefined) : inactive
O=C1C=C(Br)C(=O)C12CCc1ccccc12 (centres undefined) : inactive
CC(=O)CC(C)(C)NC(=O)[C@@]1(O)CC[C@H]2[C@@H]3CCC4=CC(=O)CC[C@@H]4[C@H]3CC[C@@]21C : inactive
O=C1OCC2OC(=O)c3cc(O)c(O)c(O)c3-c3c(O)c(O)c(O)c4c3C(=O)OC(C2OC(=O)c2cc(O)c(O)c(O)c2-c2c1cc(O)c(O)c2O)C1OC(=O)c2c-4c(O)c(O)c(O)c2[C@@H]1C(O)C(O)C(O)C(O)CO (some centres undefined) : inactive
NS(=O)(=O)c1ccc(Nc2c3ccccc3nc3c(C(=O)N4CCN(CCO)CC4)cccc23)cc1 : inactive

###

tested on: XF498; assay: NCI tumour cell line growth inhibition, 48 h
Active and inactive are the calls of the source. Cut-off read from the data, not from the text of the source: active = GI50 up to about 1.1 µM and inactive = higher.
Outcomes: active, inactive

O=C(c1ccc([N+](=O)[O-])cc1[N+](=O)[O-])N(/N=C/C=C/c1ccccc1)c1nnc(-c2ccccc2)c(-c2ccccc2)n1 : inactive
CCC(C)n1c(C)nc2c1C(=O)c1ccccc1C2=O (stereo not given) : inactive
N#CCCC(C#N)(C#N)CCC#N : inactive
O[C@]12c3ccccc3C1CCCC2N1CCOCC1 (stereo not given in full) : inactive
CC1=CC2C(=O)N(c3ccccc3)C(=O)C2CC1n1[nH]c(=O)n(Cc2ccccc2)c1=O (stereo not given) : inactive
Cc1ccc(C(=O)Nc2ncn(C3CC(O)C(CO)O3)c(=O)n2)cc1 (stereo not given) : inactive
O=C1C=C(Br)C(=O)C12CCc1ccccc12 (stereo not given) : inactive
Cc1ccccc1C(=O)c1ccccc1O : inactive
Cc1ccc(C2CC(c3ccc([N+](=O)[O-])cc3)=Nc3ccccc3S2)cc1 (stereo not given) : inactive
CO/S(=N/S(=O)(=O)c1ccccc1)c1ccccc1[N+](=O)[O-] (stereo not given) : inactive
O=C1CCC2(c3ccc(Cl)cc3)Nc3ccccc3N12 (stereo not given) : inactive
O=C(/C=C/c1ccc(O)cc1)c1ccc(O)cc1 [4,4'-DIHYDROXYCHALCONE] : inactive
CN(CO)c1nc(N(C)CO)nc(N(C)CO)n1 : inactive
CCCCCCCCCCSC(=O)NC : inactive
C=C(C)C1Cc2c(cc(OC)c3c(=O)c4ccccc4n(C)c23)O1 (stereo not given) : inactive
CNS(=O)(=O)NN(C)S(=O)(=O)c1ccc(Cl)cc1 : inactive
Clc1ccc(-n2nnc(C3=NCCN3)c2-c2ccccc2)cc1 : inactive
CC[C@@]1(O)C[C@H](OC2CC(N(C)C)C(OC3CC(O)C(OC4CC(O)C(O)C(C)O4)C(C)O3)C(C)O2)c2c(cc3c(c2O)C(=O)c2c(O)ccc(O)c2C3=O)[C@H]1C(=O)OC (stereo not given in full) : active
C#CCOCn1cnc2c(N)ncnc21 : inactive
CN(C)CCNC(=O)c1cccc2nc(-c3ccccc3)oc12 : inactive
